Can you tell me cell count for the items I'm about to list?
- Test description: inhibitors of TNFa-induced NFkB p65 translocation, primary screen, imaging, HUVEC, MLSMR starter and 10KST1 sets (AID 438);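 note: compound added about 3h40 before a 20 min TNFalpha stimulation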
- Assay setup: HUVEC TNFa-induced p65 nuclear translocation; measured here: nuclei count (cytotoxicity indicator), at 2.08 µM
Lab note: write the figure by itself, no unit.

For `O=C(Nc1nc(-c2cccs2)cs1)c1cccc(S(=O)(=O)N2CCCCC2)c1` the compound record lists cell count as 503

For `CCOC(=O)N1CCC(NC(=O)c2cc(C(=O)NC3CCCC3)ccc2CO)CC1` the compound record lists cell count as 467

For `Cc1ccccc1Cn1nc(C)c(NC(=O)c2noc3c2CCc2ccccc2-3)c1C` the compound record lists cell count as 720

For O=C(NCCN1C(=O)C2C3C=CC(C3)C2C1=O)N1CCCCC1 (configuration not stated) the compound record lists cell count as 584

For `CCSc1nnc(NC(=O)c2csc(C)c2)s1` the compound record lists cell count as 366

For CC(=O)OC1c2ccccc2C(=O)N1c1ccccc1C (configuration not stated) the compound record lists cell count as 590

For `CCCn1c(SCC(=O)N2CCN(c3ccccc3)CC2)nc2ccccc2c1=O` the compound record lists cell count as 331

For `COC(=O)CCSCc1cn2cc(Cl)ccc2n1` the compound record lists cell count as 373

For CCS(=O)(=O)N1CCCC(C(=O)NCc2ccccc2Cl)C1 (configuration not stated) the compound record lists cell count as 257

For CCOc1ccc(C2CC(c3cccc(C)c3)n3ncnc3N2)cc1 (configuration not stated) the compound record lists cell count as 666

For `O=S(=O)(c1ccc(F)c(Cl)c1)N1CCCC1` the compound record lists cell count as 331

For `COCCN1Cc2cccc(C(=O)Nc3cccnc3)c2C1=O` the compound record lists cell count as 649
